- TESTED_ON: feline FcRn (FCN-F82W3, Acrobiosystems) (feline)
- PROCEDURE_TEXT: SPR Carterra, IgG coupled, pH 6.0
QUANTITY_MEASURED: log10 koff (log10 of the value in s⁻¹)
Please interpret these as log10 of koff where koff is in s⁻¹.

Value of measured log10 koff for the entry anti-NGF feline IgG1a, Fc variant R334D (antibody, part only; not given: anti-NGF variable domains, light chain, not shown: another chain or arm of the molecule; small tags and cut ends) Fc: PPEMLGGPSIFIFPPKPKDTLSISRTPEVTCLVVDLGPDDSDVQITWFVDNTQVYTAKTSPREEQFNSTYRVVSVLPILHQDWLKGKEFKCKVNSKSLPSPIEDTISKAKGQPHEPQVYVLPPAQEELSRNKVSVTCLIKSFHPPDIAVEWEITGQPEPENNYRTTPPQLDSDGTYFVYSKLSVDRSHWQRGNTYTCSVSHEALHSHHTQKSLTQSPGK : -1.25

Item: anti-NGF feline IgG1a, Fc variant S426L, S428H (antibody, part only; not given: anti-NGF variable domains, light chain, not shown: another chain or arm of the molecule; small tags and cut ends) Fc: PPEMLGGPSIFIFPPKPKDTLSISRTPEVTCLVVDLGPDDSDVQITWFVDNTQVYTAKTSPREEQFNSTYRVVSVLPILHQDWLKGKEFKCKVNSKSLPSPIERTISKAKGQPHEPQVYVLPPAQEELSRNKVSVTCLIKSFHPPDIAVEWEITGQPEPENNYRTTPPQLDSDGTYFVYSKLSVDRSHWQRGNTYTCLVHHEALHSHHTQKSLTQSPGK | log10 koff: -1.35

In plain terms, anti-NGF feline IgG1a, Fc variant S290Y (antibody, part only; not given: anti-NGF variable domains, not shown: another chain or arm of the molecule; small tags and cut ends) Fc: PPEMLGGPSIFIFPPKPKDTLSISRTPEVTCLVVDLGPDDSDVQITWFVDNTQVYTAKTYPREEQFNSTYRVVSVLPILHQDWLKGKEFKCKVNSKSLPSPIERTISKAKGQPHEPQVYVLPPAQEELSRNKVSVTCLIKSFHPPDIAVEWEITGQPEPENNYRTTPPQLDSDGTYFVYSKLSVDRSHWQRGNTYTCSVSHEALHSHHTQKSLTQSPGK has a documented log10 koff of -1.07

Entry anti-NGF feline IgG1a, Fc variant S434F, E380D (antibody, part only; not given: anti-NGF variable domains, light chain, not shown: another chain or arm of the molecule; small tags and cut ends) Fc: PPEMLGGPSIFIFPPKPKDTLSISRTPEVTCLVVDLGPDDSDVQITWFVDNTQVYTAKTSPREEQFNSTYRVVSVLPILHQDWLKGKEFKCKVNSKSLPSPIERTISKAKGQPHEPQVYVLPPAQEELSRNKVSVTCLIKSFHPPDIAVDWEITGQPEPENNYRTTPPQLDSDGTYFVYSKLSVDRSHWQRGNTYTCSVSHEALHFHHTQKSLTQSPGK ; log10 koff = -2.23

Measured log10 koff, anti-NGF feline IgG1a, Fc variant S252Y, Q311R (antibody, part only; not given: anti-NGF variable domains, not shown: another chain or arm of the molecule; small tags and cut ends) Fc: PPEMLGGPSIFIFPPKPKDTLYISRTPEVTCLVVDLGPDDSDVQITWFVDNTQVYTAKTSPREEQFNSTYRVVSVLPILHRDWLKGKEFKCKVNSKSLPSPIERTISKAKGQPHEPQVYVLPPAQEELSRNKVSVTCLIKSFHPPDIAVEWEITGQPEPENNYRTTPPQLDSDGTYFVYSKLSVDRSHWQRGNTYTCSVSHEALHSHHTQKSLTQSPGK : -2.19
